// provenance: patent EP2308883A1

Target: PfGSK-3 (Plasmodium falciparum, UniProt O77344)
Construct: His6; made in house; host or cells: Escherichia coli TOP 10
Assay: Kinase assay with recombinant (His)6-tagged PfGSK3, GS-1 peptide and [γ-33P] ATP
Format: biochemical
Conditions: result in words

| mol smiles | anti-PfGSK-3 IC50 values |
| --- | --- |
| N#Cc1c(N)nc2sc(C(=O)c3cccc(Br)c3)c(N)c2c1-c1ccccc1Cl | particularly good |
| N#Cc1c(N)nc2sc(C(=O)c3cccc(Cl)c3)c(N)c2c1-c1ccccc1Cl | particularly good |
| COc1ccccc1-c1c(C#N)c(N)nc2sc(C(=O)c3cccc(Cl)c3)c(N)c12 | particularly good |

---

Target: GSK-3 (Leishmania donovani, UniProt A6N857)
Sequence (A6N857 1-355): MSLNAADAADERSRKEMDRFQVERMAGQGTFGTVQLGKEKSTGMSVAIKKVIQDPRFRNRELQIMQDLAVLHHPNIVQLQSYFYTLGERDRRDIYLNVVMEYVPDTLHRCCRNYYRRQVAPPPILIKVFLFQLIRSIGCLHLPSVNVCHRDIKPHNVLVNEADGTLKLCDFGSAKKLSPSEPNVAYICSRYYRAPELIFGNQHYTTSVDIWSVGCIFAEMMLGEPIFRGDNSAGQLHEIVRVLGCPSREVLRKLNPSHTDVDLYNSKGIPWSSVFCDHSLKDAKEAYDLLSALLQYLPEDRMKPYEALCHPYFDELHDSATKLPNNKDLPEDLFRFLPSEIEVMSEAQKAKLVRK
Assay: Species specificity: recombinant tagged GSK-3 orthologue kinase assay
Assay type: biochemical
Details: read-out: IC50 Leishmania donovani; calculated from dose-response curves
result type: IC50 (µM)
Kindly provide the numeric value in µM only, without the unit symbol.

| compound | IC50, µM |
| --- | --- |
| COc1ccccc1-c1c(C#N)c(N)nc2sc(C(=O)c3ccccc3)c(N)c12 [Compound 2] | 80 |
| N#Cc1c(N)nc2sc(C(=O)c3ccc(Cl)cc3)c(N)c2c1-c1ccccc1I [Compound 1] | 80 |

Consider the additional compound presented here.
Supply reported IC50 belonging to this compound: N#Cc1c(N)nc2sc(C(=O)c3cccc(Cl)c3)c(N)c2c1-c1ccccc1Cl [Compound 22]
72

---

Biological target: Mammalian GSK-3 (GSK-3α/β)
Assay: Kinase assay with native porcine GSK3 purified from porcine brain, GS-1 peptide and [γ-33P] ATP
Type: biochemical
Conditions: -(10) taken as no inhibition at 10; read-out: IC50 Mammalian GSK-3
pIC50 values for the compounds below.
The read-out pIC50 is expressed as -log10 of concentration in moles per litre.

Sample records with pIC50:
| compound | recorded result |
| --- | --- |
| N#Cc1sc2nc(N)c(C#N)c(-c3cccs3)c2c1N [Compound 41] | 5.64 |
| Cc1ccccc1-c1c(C#N)c(N)nc2sc(C#N)c(N)c12 [Compound 40] | 5.70 |

Consider the additional compound presented here.
Supply reported pIC50 belonging to this compound: N#Cc1c(N)nc2sc3c(=S)[nH]cnc3c2c1-c1ccccc1Cl [Compound 47]
7.22

---

Target: PfGSK-3 (Plasmodium falciparum)
Construct: His6; made in house; host or cells: Escherichia coli TOP 10
Sequence (O77344 1-440): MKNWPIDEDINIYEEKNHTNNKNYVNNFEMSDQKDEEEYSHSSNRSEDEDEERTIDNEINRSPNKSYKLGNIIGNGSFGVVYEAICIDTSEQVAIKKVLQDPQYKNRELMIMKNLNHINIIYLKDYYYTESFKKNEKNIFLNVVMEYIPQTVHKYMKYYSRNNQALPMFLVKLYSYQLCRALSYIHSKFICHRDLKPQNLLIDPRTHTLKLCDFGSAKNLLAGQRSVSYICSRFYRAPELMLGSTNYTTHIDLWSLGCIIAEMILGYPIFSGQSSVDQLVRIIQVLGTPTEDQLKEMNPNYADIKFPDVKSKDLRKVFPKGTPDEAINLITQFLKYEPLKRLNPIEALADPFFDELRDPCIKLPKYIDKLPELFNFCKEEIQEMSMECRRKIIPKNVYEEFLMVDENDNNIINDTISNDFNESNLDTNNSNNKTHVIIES
Assay: Kinase assay with recombinant (His)6-tagged PfGSK3, GS-1 peptide and [γ-33P] ATP
Assay type: biochemical
Conditions: unit only in the introducing sentence b99, not in the table; read-out: IC50 PfGSK-3
pIC50 values for the compounds below.
The read-out pIC50 is expressed as -log10 of concentration in moles per litre.

Sample records with pIC50:
| compound | pIC50 |
| --- | --- |
| N#Cc1cccc(C(=O)c2sc3nc(N)c(C#N)c(-c4ccccc4Cl)c3c2N)c1 [Compound 26] | 6.30 |
| N#Cc1c(N)nc2sc(C(=O)c3cccc(Cl)c3)c(N)c2c1-c1ccccc1Cl [Compound 22] | 7.22 |
| Cc1ccccc1-c1c(C#N)c(N)nc2sc(C#N)c(N)c12 [Compound 40] | 6.29 |
| COc1ccc(C(=O)c2sc3nc(N)c(C#N)c(-c4ccccc4I)c3c2N)cc1 [Compound 11] | 5.77 |
| N#Cc1c(N)nc2sc3c(=S)[nH]cnc3c2c1-c1ccccc1Cl [Compound 47] | 6.89 |
| N#Cc1c(N)nc2sc(C(=O)c3ccc(Cl)c(Cl)c3)c(N)c2c1-c1ccccc1Br [Compound 21] | 5.42 |

Consider the additional compound presented here.
Supply reported pIC50 belonging to this compound: N#Cc1sc2nc(N)c(C#N)c(-c3cccs3)c2c1N [Compound 41]
6.74

---

Molecular target: GSK-3 (Plasmodium knowlesi, UniProt A0A679KU36)
Sequence (A0A679KU36 1-473): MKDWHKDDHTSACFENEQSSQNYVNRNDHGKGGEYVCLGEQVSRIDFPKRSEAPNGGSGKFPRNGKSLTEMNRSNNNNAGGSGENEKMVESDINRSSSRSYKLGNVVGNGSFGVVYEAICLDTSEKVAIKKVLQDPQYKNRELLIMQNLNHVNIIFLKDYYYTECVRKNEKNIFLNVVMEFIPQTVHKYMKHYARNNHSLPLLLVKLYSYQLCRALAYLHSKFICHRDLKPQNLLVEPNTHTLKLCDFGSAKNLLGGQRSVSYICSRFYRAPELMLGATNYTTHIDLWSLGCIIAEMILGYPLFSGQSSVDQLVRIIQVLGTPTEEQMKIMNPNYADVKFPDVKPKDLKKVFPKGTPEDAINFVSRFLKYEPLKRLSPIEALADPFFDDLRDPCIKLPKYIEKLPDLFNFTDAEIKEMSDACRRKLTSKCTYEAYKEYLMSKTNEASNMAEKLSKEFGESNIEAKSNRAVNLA
Assay: Species specificity: recombinant tagged GSK-3 orthologue kinase assay
Type: biochemical
Settings: calculated from dose-response curves; read-out: IC50 Plasmodium knowlesi
IC50 values for the compounds below.

| mol smiles | IC50 |
| --- | --- |
| N#Cc1c(N)nc2sc(C(=O)c3cccc(Cl)c3)c(N)c2c1-c1ccccc1Br | 1450 nM |
| N#Cc1c(N)nc2sc(C(=O)c3cccc(Cl)c3)c(N)c2c1-c1ccccc1I | 2750 nM |

Consider the additional compound presented here.
Param request: IC50 | system GSK-3 (Plasmodium knowlesi, UniProt A0A679KU36) | item N#Cc1cccc(C(=O)c2sc3nc(N)c(C#N)c(-c4ccccc4Cl)c3c2N)c1
6500 nM

---

Molecular target: GSK-3 α/β
Experiment: Species specificity: recombinant tagged GSK-3 orthologue kinase assay
Conditions: calculated from dose-response curves; -(100) taken as no inhibition at 100; read-out: IC50 Sus scrofa (GSK-3 α/β)
pIC50: −log10 of the molar value.
result type: pIC50

Sample records with pIC50:
| mol smiles | pIC50 |
| --- | --- |
| N#Cc1c(N)nc2sc(C(=O)c3ccc(Cl)cc3)c(N)c2c1-c1ccccc1I | < 4.00 |
| N#Cc1c(N)nc2sc(C(=O)c3cccc(Cl)c3)c(N)c2c1-c1ccccc1Cl | < 5.00 |
| N#Cc1cccc(C(=O)c2sc3nc(N)c(C#N)c(-c4ccccc4Cl)c3c2N)c1 | 4.66 |
| N#Cc1c(N)nc2sc(C(=O)c3cccc(Cl)c3)c(N)c2c1-c1ccccc1Br | 5.25 |
| N#Cc1c(N)nc2sc(C(=O)c3cccc(Cl)c3)c(N)c2c1-c1ccccc1I | < 4.00 |

Supply reported pIC50 belonging to this compound: COc1ccccc1-c1c(C#N)c(N)nc2sc(C(=O)c3ccccc3)c(N)c12
< 4.00

---

Biological target: GSK- 3 β (Homo sapiens, UniProt P49841)
Sequence (P49841 whole entry): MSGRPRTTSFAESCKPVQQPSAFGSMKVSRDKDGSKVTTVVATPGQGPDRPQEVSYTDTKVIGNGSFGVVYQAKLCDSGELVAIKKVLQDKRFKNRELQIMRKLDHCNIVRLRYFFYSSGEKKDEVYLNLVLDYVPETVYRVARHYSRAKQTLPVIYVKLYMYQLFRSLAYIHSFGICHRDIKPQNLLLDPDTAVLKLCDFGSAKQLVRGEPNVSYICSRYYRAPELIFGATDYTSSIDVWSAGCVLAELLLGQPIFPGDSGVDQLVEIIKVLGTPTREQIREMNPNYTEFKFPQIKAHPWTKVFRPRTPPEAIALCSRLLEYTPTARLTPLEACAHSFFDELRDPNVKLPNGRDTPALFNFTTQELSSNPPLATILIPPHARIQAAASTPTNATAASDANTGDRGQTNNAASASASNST
Assay: Species specificity: recombinant tagged GSK-3 orthologue kinase assay
Conditions: calculated from dose-response curves; -(100) taken as no inhibition at 100
pIC50 values for the molecules below.
The read-out pIC50 is expressed as -log10 of concentration in moles per litre.

Sample records with pIC50:
| mol smiles | pIC50 |
| --- | --- |
| N#Cc1c(N)nc2sc(C(=O)c3cccc(Cl)c3)c(N)c2c1-c1ccccc1Br | 5.40 |
| N#Cc1c(N)nc2sc(C(=O)c3cccc(Cl)c3)c(N)c2c1-c1ccccc1I | 4.30 |
| N#Cc1c(N)nc2sc(C(=O)c3cccc(Cl)c3)c(N)c2c1-c1ccccc1Cl | 5.48 |

Consider the additional molecule presented here.
Supply reported pIC50 belonging to this molecule: N#Cc1cccc(C(=O)c2sc3nc(N)c(C#N)c(-c4ccccc4Cl)c3c2N)c1
5.09

---

Biological target: GSK-3 (Trypanosoma cruzi)
Sequence (Q4E1X0 1-353): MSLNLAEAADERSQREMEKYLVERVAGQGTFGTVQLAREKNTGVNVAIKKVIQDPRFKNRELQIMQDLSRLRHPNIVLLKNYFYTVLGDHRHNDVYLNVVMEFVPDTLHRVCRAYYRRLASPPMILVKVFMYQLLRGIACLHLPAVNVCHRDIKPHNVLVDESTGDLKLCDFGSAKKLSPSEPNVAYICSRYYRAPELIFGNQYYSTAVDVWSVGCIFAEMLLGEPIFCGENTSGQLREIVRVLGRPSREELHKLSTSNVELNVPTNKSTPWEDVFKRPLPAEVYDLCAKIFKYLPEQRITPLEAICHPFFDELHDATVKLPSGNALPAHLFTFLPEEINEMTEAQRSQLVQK
Assay: Species specificity: recombinant tagged GSK-3 orthologue kinase assay
Format: biochemical
Details: read-out: IC50 Trypanopsoma cruzi; calculated from dose-response curves; -(100) taken as no inhibition at 100
IC50 values for the compounds below.

Sample records with IC50:
| compound | IC50 |
| --- | --- |
| N#Cc1c(N)nc2sc(C(=O)c3ccc(Cl)cc3)c(N)c2c1-c1ccccc1I [Compound 1] | > 100 µM |
| N#Cc1c(N)nc2sc(C(=O)c3cccc(Cl)c3)c(N)c2c1-c1ccccc1Cl [Compound 22] | > 100 µM |

Consider the additional compound presented here.
Supply reported IC50 belonging to this compound: COc1ccccc1-c1c(C#N)c(N)nc2sc(C(=O)c3ccccc3)c(N)c12 [Compound 2]
> 100 µM

---

Biological target: GSK-3 (Leishmania major)
Construct: made in house
Sequence (Q4QE15 entry or part of it): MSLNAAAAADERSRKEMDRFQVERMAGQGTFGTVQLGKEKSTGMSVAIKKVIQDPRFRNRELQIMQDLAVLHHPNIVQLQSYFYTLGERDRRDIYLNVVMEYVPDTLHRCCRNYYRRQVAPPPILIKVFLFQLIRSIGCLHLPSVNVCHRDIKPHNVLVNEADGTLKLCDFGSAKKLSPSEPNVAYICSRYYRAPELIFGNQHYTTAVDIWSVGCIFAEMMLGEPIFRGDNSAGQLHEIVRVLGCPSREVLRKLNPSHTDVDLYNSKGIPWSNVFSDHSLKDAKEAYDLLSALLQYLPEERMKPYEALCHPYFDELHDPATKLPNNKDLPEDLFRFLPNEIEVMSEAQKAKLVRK
Assay: Species specificity: recombinant tagged GSK-3 orthologue kinase assay
Format: biochemical, Leishmania majo
pIC50: −log10 of the molar value.
pIC50 values for the compounds below.

| mol smiles | assayed system | pIC50 |
| --- | --- | --- |
| N#Cc1c(N)nc2sc(C(=O)c3ccc(Cl)cc3)c(N)c2c1-c1ccccc1I | GSK-3 (Leishmania major) | < 4.00 |
| N#Cc1c(N)nc2sc(C(=O)c3cccc(Cl)c3)c(N)c2c1-c1ccccc1I | GSK-3 (Leishmania major) | < 4.00 |
| N#Cc1cccc(C(=O)c2sc3nc(N)c(C#N)c(-c4ccccc4Cl)c3c2N)c1 | GSK-3 (Leishmania major) | < 4.00 |
| N#Cc1c(N)nc2sc(C(=O)c3cccc(Cl)c3)c(N)c2c1-c1ccccc1Br | GSK-3 (Leishmania major) | < 4.00 |
| N#Cc1c(N)nc2sc(C(=O)c3cccc(Cl)c3)c(N)c2c1-c1ccccc1Cl | GSK-3 (Leishmania major) | < 4.00 |

Consider the additional compound presented here.
Param request: pIC50 | system GSK-3 (Leishmania major) | item COc1ccccc1-c1c(C#N)c(N)nc2sc(C(=O)c3ccccc3)c(N)c12
< 4.00
